# System: Proteus vulgaris OX19
Readout type: MIC (µg/mL)

Molecule	Readout type	Censoring qualifier	Number
CNC[C@@H]1CC[C@@H](N)[C@@H](O[C@H]2C[C@@H](O[C@H]3O[C@H](CO)[C@@H](O)[C@H](N)[C@H]3O)[C@H](NC(=O)[C@@H](O)CCCN)C[C@@H]2N)O1 [AHV-trideoxyMKMB]	MIC	=	0.78
C[C@H]1O[C@H](O[C@@H]2C[C@H](O[C@H]3O[C@H](CN)CC[C@H]3N)[C@@H](N)C[C@H]2NC(=O)[C@@H](O)CCN)[C@H](O)[C@@H](N)[C@@H]1O [AHB-tetradeoxyKMB]	MIC	=	0.39
NCC[C@H](O)C(=O)N[C@@H]1C[C@H](N)[C@@H](O[C@H]2O[C@H](CN)CC[C@H]2N)C[C@H]1O[C@H]1O[C@H](CO)[C@@H](O)[C@H](N)[C@H]1O [AHB-trideoxyKMB]	MIC	=	0.39
CNC[C@@H]1CC[C@@H](N)[C@@H](O[C@H]2C[C@@H](O[C@H]3O[C@H](CO)[C@@H](O)[C@H](N)[C@H]3O)[C@H](N)C[C@@H]2N)O1 [TrideoxyMKMB, 5,3',4'-trideoxy-6'-N-methylkanamycin B]	MIC	=	3.13
CNC[C@@H]1CC[C@@H](N)[C@@H](O[C@H]2C[C@@H](O[C@H]3O[C@H](CO)[C@@H](O)[C@H](N)[C@H]3O)[C@H](NC(=O)[C@@H](O)CCN)C[C@@H]2N)O1 [AHB-trideoxyMKMB]	MIC	<	0.2

This collection of values is drawn from patent US4410516A.
